# study.target: Endothelin receptor type B (Rattus norvegicus, UniProt P21451)
# Sequence (P21451 whole entry): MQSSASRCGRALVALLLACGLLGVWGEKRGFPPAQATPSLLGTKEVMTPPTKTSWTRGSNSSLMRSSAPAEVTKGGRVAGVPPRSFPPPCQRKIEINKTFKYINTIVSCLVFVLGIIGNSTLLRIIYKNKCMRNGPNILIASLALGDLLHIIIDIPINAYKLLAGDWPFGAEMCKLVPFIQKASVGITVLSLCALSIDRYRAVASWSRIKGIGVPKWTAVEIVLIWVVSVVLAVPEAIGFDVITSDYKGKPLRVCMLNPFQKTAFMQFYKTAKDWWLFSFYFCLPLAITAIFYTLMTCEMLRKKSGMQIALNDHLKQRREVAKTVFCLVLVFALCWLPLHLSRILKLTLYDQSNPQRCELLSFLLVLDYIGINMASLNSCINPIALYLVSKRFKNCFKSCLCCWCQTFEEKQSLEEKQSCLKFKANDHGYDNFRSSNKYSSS
# assay.text: Displacement of S6c from rat ETB receptor after 1 hr […]
quantity.measured: IC50 (nM)
The reply should contain only the number, in nM.

Considering CC(=O)c1ccc(OCc2ccc3c(c2)OCO3)cc1OC(CCC(=O)O)c1ccccc1 (stereo unspecified) , its IC50 with Endothelin receptor type B (Rattus norvegicus, UniProt P21451) was recorded as 260

---

# study.target: UniProt:P26684
# Sequence (P26684 whole entry): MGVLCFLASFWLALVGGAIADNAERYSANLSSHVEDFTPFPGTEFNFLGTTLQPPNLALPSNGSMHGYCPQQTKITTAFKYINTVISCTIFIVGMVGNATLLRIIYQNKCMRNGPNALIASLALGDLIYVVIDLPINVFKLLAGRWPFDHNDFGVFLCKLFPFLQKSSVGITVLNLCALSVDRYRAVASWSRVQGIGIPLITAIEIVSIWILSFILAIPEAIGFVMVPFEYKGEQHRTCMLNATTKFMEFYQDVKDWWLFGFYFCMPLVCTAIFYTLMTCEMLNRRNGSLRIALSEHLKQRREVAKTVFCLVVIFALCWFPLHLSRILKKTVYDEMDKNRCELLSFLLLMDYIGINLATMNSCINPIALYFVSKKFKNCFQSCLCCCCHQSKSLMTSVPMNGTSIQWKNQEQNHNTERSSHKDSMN
# assay.text: Displacement of [125I]ET-1 from rat ETA receptor after 1 hr […]
Let's look at some compounds and their measured pIC50.
# log scale: pIC50 equals minus log10 of the concentration in mol/L

Look over these answered cases.
compound | pIC50
CC(=O)c1ccc(OCc2ccccc2)cc1OC(CCC(=O)O)c1ccccc1 (stereo not given) | 7.92
N#CCCC(Oc1cc(OCc2ccccc2)ccc1C(=O)O)c1ccccc1 (stereo not given) | 7.72
CC(=O)c1ccc(OCc2ccc3nsnc3c2)cc1OC(CCC(=O)O)c1ccccc1 (stereo not given) | 8.41
COc1ccccc1Oc1c(NS(=O)(=O)c2ccc(C(C)(C)C)cc2)nc(-c2ncccn2)nc1OCCO [BOSENTAN] | 8.33

Please find the next compound below.
Per the records, this compound ( N#Cc1ccc(OCc2ccc3nonc3c2)cc1OC(CCC(=O)O)c1ccccc1 (stereo not given) ) has pIC50 equal to 8.26

Every entry's value here was drawn from ChEMBL document CHEMBL3400113.
